Experiment: Drug repurposing screens with cells derived from glioblastoma tumor samples (AID 1345199); further: on the % scale 0 is the no-effect control and ±100 the full control effect; nearly all actives have a fitted effect of over 40% in size
Details: GBM patient neurospheres viability, ATP luminescence, 48 h; at 20 µM (top of the series); tumour line C
Results filed as inconclusive are left out.
observed-property: activity, negative = cell killing (%)
Write it as a number; the unit % goes unstated.

Prompt line: What value of activity, negative = cell killing has been reported for the following compound? CC(=O)OCC(=O)[C@@]12OC(C)(C)O[C@@H]1C[C@H]1[C@@H]3C[C@H](F)C4=CC(=O)C=C[C@]4(C)[C@@]3(F)[C@@H](O)C[C@@]12C
Response line: -14.9

Prompt line: Queued: CCCC(=O)Nc1ccc(OCC(O)CNC(C)C)c(C(C)=O)c1 (stereo unspecified)
Response line: -9.42

Prompt line: Queued: CC(C)(C(=O)c1cccnc1)c1cccnc1
Response line: -7.19

Prompt line: Queued: CC(=O)c1ccc2c(c1)N(CCCN1CCC(CCO)CC1)c1ccccc1S2
Response line: 17.8

Prompt line: Queued: CN1CCCC(CC2c3ccccc3Sc3ccccc32)C1 (stereo unspecified)
Response line: 5.58

Prompt line: Queued: CN(C(=O)CN(CCO)CC(=O)N(C)C(C)(C)Cc1ccccc1)C(C)(C)Cc1ccccc1
Response line: 7.73

Prompt line: Queued: O=C(OCCOCCO)c1ccccc1Nc1cccc(C(F)(F)F)c1
Response line: -19.4

Prompt line: Queued: NC(=O)c1cc[n+](CC2=C(C(=O)[O-])N3C(=O)[C@@H](NC(=O)Cc4cccs4)[C@H]3SC2)cc1
Response line: -2.18

Prompt line: Queued: C[C@H]1[C@H](NC(=O)/C(=N/OC(C)(C)C(=O)O)c2csc(N)n2)C(=O)N1S(=O)(=O)O (stereo in doubt)
Response line: -1.55

Prompt line: Queued: Cc1c(N(C)CS(=O)(=O)O)c(=O)n(-c2ccccc2)n1C
Response line: -2.96

Prompt line: Queued: CCN(CCCc1ccccc1)CCCc1ccccc1
Response line: -18.9

Prompt line: Queued: CN(C)CCCOc1nn(Cc2ccccc2)c2ccccc12
Response line: -16.8

Prompt line: Queued: NCCCC[C@H](N[C@@H](CCc1ccccc1)C(=O)O)C(=O)N1CCC[C@H]1C(=O)O
Response line: 16.9

Prompt line: Queued: CCOC(=O)n1ccn(C)c1=S
Response line: 6.23

Prompt line: Queued: CCCCCCCCCCCCCCCC[N+](C)(C)CCN(Cc1ccc(OC)cc1)c1ncccn1
Response line: -23.1

Prompt line: Queued: CCCCOc1ccc(OCCCN2CCOCC2)cc1
Response line: -6.83

Prompt line: Queued: CCN(CCCCOC(=O)c1ccc(OC)c(OC)c1)C(C)Cc1ccc(OC)cc1 (stereo unspecified)
Response line: -2.24

Prompt line: Queued: CN1CCN(CCCN2c3ccccc3Sc3ccc(S(=O)(=O)N(C)C)cc32)CC1
Response line: 3.3

Prompt line: Queued: CCCCOc1cc(C(=O)NCCN(CC)CC)c2ccccc2n1
Response line: 9.91

Prompt line: Queued: CC(=O)CC(c1ccc([N+](=O)[O-])cc1)c1c(O)c2ccccc2oc1=O (stereo unspecified)
Response line: 0.914

Prompt line: Queued: COc1c2occc2c(OC)c2c(=O)cc(C)oc12
Response line: -11.9

----------
Test system: CP201
Test: qHTS profiling for inhibitors of Plasmodium falciparum proliferation (AID 504749); further: nearly all actives have a fitted effect of over 60% in size
Settings: P. falciparum in erythrocytes, SYBR Green DNA, 72 h; series mostly up to 28.7 µM
Procedure: NIH National Institute of Allergy and Infectious Diseases [NIAID] NIH Chemical Genomics Center [NCGC] […] Because mature erythrocytes lack DNA, only Plasmodium-derived DNA is detected. NCGC Assay Protocol Summary: The SYBR Green viability assay was adapted from a method described previously (Plouffe et al., 2008). […] The following morning, fluorescence intensity at 485(14) nm excitation and 535(25) nm emission wavelengths was measured on an EnVision (Perkin Elmer) plate reader. […]
Results filed as inconclusive are left out. Calls of active or inactive are those of the source. The call rests on the fitted dose curve; in most records, active means well fitted inhibition curve with a large enough effect; inconclusive means small, poorly fitted or top-dose-only effect; inactive means flat fitted curve, though single readings scatter.
Write down the outcome that applies. Available outcomes: T = active, F = inactive

Prompt line: GET /call?item= CN(C)/N=N/c1nc[nH]c1C(N)=O returns the recorded outcome of this test.
Response line: F

Prompt line: Queued: CCN(CC)CCOC(=O)C(c1ccccc1)C1CCCCC1 (centres undefined)
Response line: F

Prompt line: Queued: CCOC(=O)n1ccn(C)c1=S
Response line: F

Prompt line: Queued: CN=C(NC#N)Nc1ccc(C2=NNC(=O)CC2C)cc1 (centres undefined)
Response line: F

Prompt line: Queued: CCCCC1=NC2(CCCC2)C(=O)N1Cc1ccc(-c2ccccc2-c2nn[nH]n2)cc1
Response line: F

Prompt line: Queued: C1CCc2nnnn2CC1
Response line: F

Prompt line: Queued: CC(=O)Oc1ccc(C(=C2CCCCC2)c2ccc(OC(C)=O)cc2)cc1
Response line: F

Prompt line: Queued: CCN1CCN(c2cc3c(cc2F)c(=O)c(C(=O)O)cn3C2CC2)CC1
Response line: F

Prompt line: Queued: CCCCOc1cc(C(=O)NCCN(CC)CC)c2ccccc2n1
Response line: F

Prompt line: Queued: CCOC(=O)/C=C(C)/C=C/C=C(C)/C=C/c1c(C)cc(OC)c(C)c1C
Response line: F

Prompt line: Queued: C#C[C@]1(O)CC[C@H]2[C@@H]3CCc4cc(OC5CCCC5)ccc4[C@H]3CC[C@@]21C
Response line: F

Prompt line: Queued: CCN(CC)C(=O)/C(C#N)=C/c1cc(O)c(O)c([N+](=O)[O-])c1
Response line: F

Prompt line: Queued: CC/C(=C(/CC)c1ccc(O)cc1)c1ccc(O)cc1
Response line: F

Prompt line: Queued: C[C@H]1[C@H](NC(=O)/C(=N/OC(C)(C)C(=O)O)c2csc(N)n2)C(=O)N1S(=O)(=O)O (stereo in doubt)
Response line: F

Prompt line: Queued: Cc1c(F)c(N2CCNC(C)C2)cc2c1c(=O)c(C(=O)O)cn2C1CC1 (centres undefined)
Response line: F

Prompt line: Queued: CN(C)CC/C=C1\c2ccccc2Sc2ccc(Cl)cc21
Response line: F

Prompt line: Queued: CN(C)CCCOc1nn(Cc2ccccc2)c2ccccc12
Response line: F

Prompt line: Queued: CC(C)=CCC1C(=O)N(c2ccccc2)N(c2ccccc2)C1=O
Response line: F

Prompt line: Queued: CCC(=O)c1c(O)cc(O)cc1O
Response line: F

Prompt line: Queued: COc1cc2c(cc1OC)C(C(C(=O)N(CCc1ccc(OC)c(OC)c1OC)CCc1ccc(OC)c(OC)c1OC)c1ccccc1)=NCC2 (centres undefined)
Response line: T

Prompt line: Queued: Oc1ccc(O)cc1
Response line: F

Prompt line: Queued: CC(Cc1cccc(C(F)(F)F)c1)NCCOC(=O)c1ccccc1 (centres undefined)
Response line: F

Prompt line: Queued: Oc1ccc(Cl)c2cccnc12
Response line: F

Prompt line: Queued: CCOc1ccc(NC(=O)CC(C)O)cc1 (centres undefined)
Response line: F

----------
Please go through the items and note down their max response.
System: KB-3-1
Assay: Cytotoxic Profiling of Annotated Libraries Using Quantitative High-Throughput Screening (AID 1296008); further: on the % scale 0 is the no-effect control and ±100 the full control effect; nearly all actives have a fitted effect of over 60% in size
Settings: Five cell lines viability, CellTiter-Glo ATP luminescence, 48-72 h; active compounds read low
Inconclusive results are not listed.
Write it as a number; the unit % goes unstated.

Prompt line: What value of max response has been reported for the following compound? C[C@@H]1CN(CCCn2c3ccccc3c3ccccc32)C[C@H](C)N1
Response line: 0.54

Prompt line: Queued: Cc1c(C)n(CCN(C)C)c2ccc(C(=O)OCCN(C)C)cc12
Response line: 2.08

Prompt line: Queued: COC1=CC(=O)C[C@@H](C)[C@]12Oc1c(Cl)c(OC)cc(OC)c1C2=O
Response line: -57.5

Prompt line: Queued: CC(C)C[C@H]1C(=O)N2CCC[C@H]2[C@]2(O)O[C@](NC(=O)[C@@H]3C=C4c5cccc6[nH]c(Br)c(c56)C[C@H]4N(C)C3)(C(C)C)C(=O)N12
Response line: 3.47

Prompt line: Queued: O=C1CCC(c2ccc(-n3ccnc3)cc2)=NN1
Response line: 11.9

Prompt line: Queued: CC(=O)c1ccc2c(c1)N(CCCN1CCC(CCO)CC1)c1ccccc1S2
Response line: -5.25

Prompt line: Queued: Cc1c(N(C)CS(=O)(=O)O)c(=O)n(-c2ccccc2)n1C
Response line: 16.1

Prompt line: Queued: CN1CCC(=C2c3ccccc3Sc3ccccc32)CC1
Response line: -16.3

Prompt line: Queued: CCN(CC)CCOC(=O)C(c1ccccc1)C1CCCCC1 (stereo unspecified)
Response line: -2.77

Prompt line: Queued: CN(C)C(=S)SC(=S)N(C)C
Response line: 31.5

Prompt line: Queued: CC(C)=CCC1C(=O)N(c2ccccc2)N(c2ccccc2)C1=O
Response line: -9.06

Prompt line: Queued: COc1cccc(CCc2ccccc2OCC(CN(C)C)OC(=O)CCC(=O)O)c1 (stereo unspecified)
Response line: -2.49

Prompt line: Queued: Cc1ncc(CSSCc2cnc(C)c(O)c2CO)c(CO)c1O
Response line: -0.0269

Prompt line: Queued: COc1cc2c(cc1OC)C(C(C(=O)N(CCc1ccc(OC)c(OC)c1OC)CCc1ccc(OC)c(OC)c1OC)c1ccccc1)=NCC2 (stereo unspecified)
Response line: 28

Prompt line: Queued: Oc1c(I)cc(Cl)c2cccnc12
Response line: -8.86

Prompt line: Queued: Cc1cccc(C)c1NC(=O)CN1CCN(CCCC(c2ccc(F)cc2)c2ccc(F)cc2)CC1
Response line: -1.23

Prompt line: Queued: O=C(CCN1CCC(c2ccccc2)C1)c1ccc2c(c1)OCCO2 (stereo unspecified)
Response line: -5.38

Prompt line: Queued: O=c1ccc2ccccc2o1
Response line: -9.75

Prompt line: Queued: C/C=C(/C(=C/C)c1ccc(O)cc1)c1ccc(O)cc1
Response line: -11.5

Prompt line: Queued: CC1(C)O[C@@H]2C[C@H]3[C@@H]4CCC5=CC(=O)CC[C@]5(C)[C@@]4(F)[C@@H](O)C[C@]3(C)[C@]2(C(=O)CCl)O1
Response line: 33.4

Prompt line: Queued: C=C1C[C@H]2[C@@H]3C=C(C)C4=CC(=O)CC[C@]4(C)[C@H]3CC[C@]2(C)[C@@]1(OC(C)=O)C(C)=O
Response line: 17.3

Prompt line: Queued: CC(=O)O[C@H]1C[C@@H]2CC[C@@H]3[C@H](CC[C@@]4(C)[C@H]3C[C@H]([N+]3(C)CCCCC3)[C@@H]4OC(C)=O)[C@@]2(C)C[C@@H]1[N+]1(C)CCCCC1
Response line: 1.63

Prompt line: Queued: Cc1c(C(C)C)c(=O)n(-c2ccccc2)n1C
Response line: -0.49

Prompt line: Queued: C[C@]12CC[C@H]3[C@@H](CCC4=CC(=O)CC[C@@]43C)[C@@H]1CC[C@@H]2C(=O)CO
Response line: -3.06

Prompt line: Queued: COC(=O)[C@@H]1CC2=CC(=O)CC[C@]2(C)[C@@]23O[C@@H]2C[C@@]2(C)[C@@H](CC[C@@]24CCC(=O)O4)[C@H]13
Response line: -7.46

Prompt line: Queued: CN(C/C=C/c1ccccc1)Cc1cccc2ccccc12
Response line: 4.5

Prompt line: Queued: CN(C(=O)CN(CCO)CC(=O)N(C)C(C)(C)Cc1ccccc1)C(C)(C)Cc1ccccc1
Response line: -13.8

Prompt line: Queued: C[C@H](O)C(=O)Nc1c(I)c(C(=O)NC(CO)CO)c(I)c(C(=O)NC(CO)CO)c1I
Response line: 3.55

Prompt line: Queued: CCOC(=O)[C@H](CCc1ccccc1)N[C@@H](C)C(=O)N1Cc2ccccc2C[C@H]1C(=O)O
Response line: 21.9

Prompt line: Queued: CCC(=O)c1c(O)cc(O)cc1O
Response line: -16.9

Prompt line: Queued: CCCCN1CCCC1C(=O)Nc1c(C)cc(C)cc1C (stereo unspecified)
Response line: -0.66

Prompt line: Queued: O=C1[C@H]2CCCC[C@H]2C(=O)N1CCCCN1CCN(c2nsc3ccccc23)CC1
Response line: 2.4

Prompt line: Queued: C[N+]1(CCCCC[N+]2(C)CCCC2)CCCC1
Response line: 15

Prompt line: Queued: CCOC(=O)OC(C)OC1=C(C(=O)Nc2ccccn2)N(C)S(=O)(=O)c2ccccc21 (stereo unspecified)
Response line: 2.11

Prompt line: Queued: CCOc1ccc2nc3cc(N)ccc3c(N)c2c1
Response line: -2.82

Prompt line: Queued: CCCCOc1cc(C(=O)NCCN(CC)CC)c2ccccc2n1
Response line: 0.155

Prompt line: Queued: COC(=O)[C@H]1[C@H]2C[C@H]3c4[nH]c5ccccc5c4CCN3C[C@H]2CC[C@@H]1O
Response line: -10.9

Prompt line: Queued: CN1CCC[C@@H]1c1cccnc1
Response line: -0.673

Prompt line: Queued: Cc1cc(N)c2cc(NC(=O)Nc3ccc4nc(C)cc(N)c4c3)ccc2n1
Response line: -4.37

Prompt line: Queued: O=C1OC2(c3ccc(O)cc3Oc3cc(O)ccc32)c2ccccc21
Response line: -10.5

Prompt line: Queued: CN=C(NC#N)Nc1ccc(C2=NNC(=O)CC2C)cc1 (stereo unspecified)
Response line: 6.06
